# Tested on: rodent lifetime carcinogenesis bioassay, tumor incidence TD50
# method_notes: carcinogenic potency in animals, long-term in vivo studies, CPDB compilation (AID 1745844)
# condition_summary: rat; strain Fischer 344; males; in feed; site: urinary bladder; lesion: transitional-cell carcinoma + transitional-cell papilloma; dosed 12 weeks; study length 103 weeks
quantity: TD50 (mg/kg/day)
// note: answer is a bare numeric in mg/kg/day

Exercise: For the compound "OCC(CO)(CBr)CBr" , report TD50.
Solution: 223

* * *

# System: rodent lifetime carcinogenesis bioassay, tumor incidence TD50
# method_notes: carcinogenic potency in animals, long-term in vivo studies, CPDB compilation (AID 1745844)
# condition_summary: rat; strain Fischer 344; males; in feed; site: urinary bladder; lesion: papillary carcinoma + squamous-cell carcinoma + transitional-cell carcinoma + transitional-cell papilloma + undifferentiated car; dosed 104 weeks; study length 105 weeks
quantity: TD50

Exercise: For the molecule "COc1ccc(C)cc1N" , report TD50.
Solution: 88.4 mg/kg/day
